- assay.system: β-galactosidase LacZ from L. bulgaricus (nontagged) (Lactobacillus delbrueckii, UniProt Q1G9Z4)
- Sequence (Q1G9Z4 2-1008): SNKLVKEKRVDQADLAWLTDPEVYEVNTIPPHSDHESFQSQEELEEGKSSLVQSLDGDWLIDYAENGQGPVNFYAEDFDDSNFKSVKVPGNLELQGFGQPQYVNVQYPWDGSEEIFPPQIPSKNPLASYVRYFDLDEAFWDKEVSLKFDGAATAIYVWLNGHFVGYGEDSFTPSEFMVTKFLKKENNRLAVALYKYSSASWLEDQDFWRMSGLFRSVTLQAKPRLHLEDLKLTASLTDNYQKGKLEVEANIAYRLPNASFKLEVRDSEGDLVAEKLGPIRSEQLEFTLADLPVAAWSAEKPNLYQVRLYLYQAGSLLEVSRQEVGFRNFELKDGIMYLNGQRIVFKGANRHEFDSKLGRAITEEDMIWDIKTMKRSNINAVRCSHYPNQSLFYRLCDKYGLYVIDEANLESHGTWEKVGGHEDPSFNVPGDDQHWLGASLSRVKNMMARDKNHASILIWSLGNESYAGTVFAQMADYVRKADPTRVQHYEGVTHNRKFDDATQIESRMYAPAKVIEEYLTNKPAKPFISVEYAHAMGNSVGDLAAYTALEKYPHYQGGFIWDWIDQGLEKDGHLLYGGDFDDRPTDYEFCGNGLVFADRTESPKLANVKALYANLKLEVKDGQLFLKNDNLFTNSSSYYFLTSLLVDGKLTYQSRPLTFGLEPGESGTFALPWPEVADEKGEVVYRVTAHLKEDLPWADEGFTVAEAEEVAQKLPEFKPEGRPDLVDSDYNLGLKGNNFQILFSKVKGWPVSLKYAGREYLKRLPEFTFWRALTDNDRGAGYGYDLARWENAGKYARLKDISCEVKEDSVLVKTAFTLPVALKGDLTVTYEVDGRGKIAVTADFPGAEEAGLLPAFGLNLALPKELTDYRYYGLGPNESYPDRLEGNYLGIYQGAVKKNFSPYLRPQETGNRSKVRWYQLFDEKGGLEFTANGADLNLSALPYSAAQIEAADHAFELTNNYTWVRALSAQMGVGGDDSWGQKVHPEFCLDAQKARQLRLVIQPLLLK
- assay.name: inhibition of oNPG hydrolysis, nonlinear regression
- settings: read-out: nontagged LacZ; substrate oNPG; 50 mM sodium phosphate, pH 6.5, 30 °C; competitive
attribute.measured: pKi
Keep in mind that pKi stands for -log10 of concentration in molar terms.

Query: Look at this compound and give its reported pKi. OC[C@H]1OC(O)[C@H](O)[C@@H](O)[C@H]1O (stereo partly shown)
Response: 2.02

Origin of the recorded values: paper PMC3284191
